# target system: WEE1 (Homo sapiens, UniProt P30291+Q96SW2)
# Construct: C-terminal ePL-tagged (DiscoverX, Fremont, CA) full-length WEE1 expression construct; expressed in transfected cells; host or cells: LentiX-HEK293T (Invitrogen), lentivirally transduced; the cells also over-express GSPT1-GN
# Sequence (P30291 whole entry): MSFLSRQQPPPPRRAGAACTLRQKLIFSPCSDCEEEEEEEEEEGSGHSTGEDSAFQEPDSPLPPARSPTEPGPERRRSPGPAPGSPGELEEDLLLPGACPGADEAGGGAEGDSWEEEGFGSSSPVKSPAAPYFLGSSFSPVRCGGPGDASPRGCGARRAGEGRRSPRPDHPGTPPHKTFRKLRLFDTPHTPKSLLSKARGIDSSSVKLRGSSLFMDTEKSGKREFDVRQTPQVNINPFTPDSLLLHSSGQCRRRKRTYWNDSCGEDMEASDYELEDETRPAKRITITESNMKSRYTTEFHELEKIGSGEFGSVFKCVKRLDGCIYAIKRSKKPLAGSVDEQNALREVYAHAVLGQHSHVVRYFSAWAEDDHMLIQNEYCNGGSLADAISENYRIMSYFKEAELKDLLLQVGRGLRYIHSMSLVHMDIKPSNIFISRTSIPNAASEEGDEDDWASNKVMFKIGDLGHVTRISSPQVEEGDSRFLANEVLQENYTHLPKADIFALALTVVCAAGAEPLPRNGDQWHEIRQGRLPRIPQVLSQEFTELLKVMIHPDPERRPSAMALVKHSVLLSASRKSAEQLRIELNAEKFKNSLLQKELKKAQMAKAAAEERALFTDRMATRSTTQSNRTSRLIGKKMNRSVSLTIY
# Sequence (Q96SW2 whole entry): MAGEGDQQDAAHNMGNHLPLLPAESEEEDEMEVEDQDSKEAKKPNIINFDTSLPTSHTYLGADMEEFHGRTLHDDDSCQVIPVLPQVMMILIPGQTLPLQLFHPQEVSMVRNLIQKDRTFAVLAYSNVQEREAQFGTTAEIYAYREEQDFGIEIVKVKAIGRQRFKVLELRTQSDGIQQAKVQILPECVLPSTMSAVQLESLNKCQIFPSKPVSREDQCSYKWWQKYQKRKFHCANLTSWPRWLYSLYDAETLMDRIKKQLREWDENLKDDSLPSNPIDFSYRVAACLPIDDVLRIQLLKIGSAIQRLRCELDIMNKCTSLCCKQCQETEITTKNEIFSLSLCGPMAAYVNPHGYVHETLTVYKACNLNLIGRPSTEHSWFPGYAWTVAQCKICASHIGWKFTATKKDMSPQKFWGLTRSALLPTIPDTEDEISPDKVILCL
# Sequence (Q16531 whole entry partner): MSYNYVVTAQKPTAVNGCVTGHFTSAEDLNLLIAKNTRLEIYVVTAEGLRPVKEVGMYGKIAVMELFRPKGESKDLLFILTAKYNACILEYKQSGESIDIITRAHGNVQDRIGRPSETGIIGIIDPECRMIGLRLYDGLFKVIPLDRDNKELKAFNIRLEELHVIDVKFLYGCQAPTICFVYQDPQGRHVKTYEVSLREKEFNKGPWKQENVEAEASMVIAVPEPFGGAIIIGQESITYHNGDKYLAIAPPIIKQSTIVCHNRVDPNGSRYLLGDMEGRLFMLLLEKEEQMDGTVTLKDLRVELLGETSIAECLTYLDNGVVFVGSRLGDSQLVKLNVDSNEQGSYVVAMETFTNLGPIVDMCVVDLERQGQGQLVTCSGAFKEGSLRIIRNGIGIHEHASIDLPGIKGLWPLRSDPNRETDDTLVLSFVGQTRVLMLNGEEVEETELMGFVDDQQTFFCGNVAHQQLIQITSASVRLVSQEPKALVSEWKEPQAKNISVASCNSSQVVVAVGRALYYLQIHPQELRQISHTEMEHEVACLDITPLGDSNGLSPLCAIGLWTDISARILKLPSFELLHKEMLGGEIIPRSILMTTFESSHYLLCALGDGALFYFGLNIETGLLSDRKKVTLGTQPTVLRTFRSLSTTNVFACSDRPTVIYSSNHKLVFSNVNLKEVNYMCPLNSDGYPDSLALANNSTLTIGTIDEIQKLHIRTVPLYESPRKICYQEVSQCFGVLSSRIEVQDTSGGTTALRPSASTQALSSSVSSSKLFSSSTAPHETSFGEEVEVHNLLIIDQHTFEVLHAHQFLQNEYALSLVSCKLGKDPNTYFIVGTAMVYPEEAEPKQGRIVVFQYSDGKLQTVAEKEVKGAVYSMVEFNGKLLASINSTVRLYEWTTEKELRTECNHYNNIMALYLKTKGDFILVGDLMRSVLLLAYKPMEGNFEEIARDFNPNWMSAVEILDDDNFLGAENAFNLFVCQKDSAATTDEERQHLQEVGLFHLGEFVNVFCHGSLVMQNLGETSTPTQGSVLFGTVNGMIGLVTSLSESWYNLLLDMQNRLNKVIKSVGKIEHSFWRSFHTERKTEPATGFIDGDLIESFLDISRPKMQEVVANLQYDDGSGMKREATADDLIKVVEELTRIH
# test summary: WEE1-ePL degradation assay (293T-LentiX, InCELL Hunter luminescence, 4 hr)
# Assay type: cell-based
# run conditions: lower limit of fit, % of DMSO control signal remaining; 4 hr
Please go through the items and note down their 293T-LentiX WEE1-ePL Degradation 4 hr YMin (%).
Provide only the numeric value, understood in %.

Q: # input molecule: COC[C@@H]1CN(Cc2cc(F)c3nc(N4CCCC4=O)ncc3c2)C[C@H]1Oc1ccc2c(c1)CN([C@H]1CCC(=O)NC1=O)C2=O [Example 61] ; wanted: its 293T-LentiX WEE1-ePL Degradation 4 hr YMin (%)
Result: 29.3

Q: Would you mind doing COC[C@@H]1CN(Cc2ccc3nc(C4CCOCC4)ccc3n2)C[C@H]1Oc1ccc2c(c1)CN([C@H]1CCC(=O)NC1=O)C2=O [Example 128] as well?
Result: 30.5

Q: Would you mind doing COC[C@@H]1CN(Cc2ccc3nc(C4CCN(C5COC5)CC4)ccc3c2)C[C@H]1Oc1ccc2c(c1)CN([C@H]1CCC(=O)NC1=O)C2=O [Example 114] as well?
Result: 29.7
